Overview of reported Fold change of IFNγ at 10 µg/ml vs baseline, human PBMC across a group of binders:
- target-desc: T1, Avi/His-HuIL18BPa (recombinant human IL-18BP isoform A with Avi and poly-His tags) (human, biotinylated with BirA on the Avi tag in some assays)
- T1 chain: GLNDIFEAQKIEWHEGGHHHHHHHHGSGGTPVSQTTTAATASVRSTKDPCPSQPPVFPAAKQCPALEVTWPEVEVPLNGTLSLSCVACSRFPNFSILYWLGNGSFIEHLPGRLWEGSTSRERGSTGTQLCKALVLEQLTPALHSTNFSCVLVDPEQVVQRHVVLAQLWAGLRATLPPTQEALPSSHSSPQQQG
- assay-details: cell-based or functional assay
parameter-measured: Fold change of IFNγ at 10 µg/ml vs baseline, human PBMC (fold)

[[record]]
binder = "anti-IL18BP antibody BP-07 (antibody, human IgG1, V domains shown) VH: EVQLQQSGPELVKPGASVKISCRASGFTITDYNMDWVRQSHGKSLEWIGNINLNNGGSIYNQKFKGKATLTIDKSSSTAYMELRSLTSEDTAVYYCARSDTTVVASRYYAMDYWGQGTSVTVSS VL: DIVLTQSPASLAMSLGKRATISCRASESVSIIGTNLIHWYQQKPGQPPKLLIYHASNLETGVPVRFSGSGSRTDFTLTIDPVEEDDVAIYYCLQSRKIPPTFGGGTKLEIK"
reading = 16.6

[[record]]
binder = "anti-IL18BP antibody BP-08 (antibody, human IgG1, V domains shown) VH: QVQLQQPGAELVKPGASVKLSCKVSGYTFTSYWMHWVKQRPGQGLEWIGMIDPNSDSSRYNEKFKNRATLTADKSSSTAFMQFSSLTSEDSAVYYCARSRLGQDYWGQGTTLTVSS VL: DIVMTQSHKFMSTSVGDRVSITCKASQDVSTAVAWYQQKPGQSPKLLIYWASTRHTGVPDRFTGSESGTDYTLIISSVQAEDLALYYCQQHFSTPYTFGGGTKLEIK"
reading = 5.19

